Procedure details: Clearance in male Wistar rat at 100 mg/kg, po
Type: ADME, organism-based
Design: dose 100 mg/kg, route oral
Test context: in vivo
Assay endpoint: CL/F (mL/min)
State just the number; it will be interpreted in mL/min.

For the compound shown here, `CC(C)(CCCCC(O)CCCCC(C)(C)C(=O)O)C(=O)O` , give the reported CL/F.
0.473

---

Test system: Rattus norvegicus
Procedure details: Activity against non high density lipoprotein cholesterol level in obese female Zucker rat serum after 2 weeks at 30 mg/kg (percent change from pre-treatment)
Assay type: functional
Exercise: state measured Activity for each of the compounds provided.
State just the number; it will be interpreted in %.

For the compound shown here, `CC(C)(CO)CCCCN(O)CCCCC(C)(C)CO` , give the reported Activity.
-5

For the compound shown here, `CC(=O)C(CCCCC(C)(C)CO)CCCCC(C)(C)CO` , give the reported Activity.
52

For the compound shown here, `CC(C)(CO)CCCCNC(=O)CCCCC(C)(C)CO` , give the reported Activity.
-7

For the compound shown here, `CC(C)(CO)CCCSCCCC(C)(C)CO` , give the reported Activity.
-14

---

System: Rattus norvegicus
Procedure details: Activity against triglyceride level in obese female Zucker rat serum after 2 weeks at 100 mg/kg (percent change from pre-treatment)
Assay type: functional
Entries are sorted into classes by Activity as follows: low bin: < -60%; mid bin: ≥ -60% and < -20%; high bin: ≥ -20%

Which category fits this record: `CC(C)(CO)CCCCC(O)CCCCC(C)(C)CO`
mid bin

Which category fits this record: `CC(C)(CO)CCCCC(=O)CCCCC(C)(C)CO`
mid bin

Which category fits this record: `CC(C)(CO)CCCCOCCCCC(C)(C)CO`
low bin

Which category fits this record: `CC(C)(CO)CCCCNC(=O)NCCCCC(C)(C)CO`
mid bin

Which category fits this record: `CC(C)(CO)CCCCNC(=O)OCCCCC(C)(C)CO`
high bin

Which category fits this record: `CC(C)(CO)CCC[S+]([O-])CCCC(C)(C)CO`
high bin

Which category fits this record: `CC(C)(CCCCCC(=O)CCCCCC(C)(C)C(=O)O)C(=O)O`
low bin

Which category fits this record: `CC(C)(CO)CCCCS(=O)(=O)CCCCC(C)(C)CO`
high bin

Which category fits this record: CC(CO)(CCCSCCCC(C)(CO)c1ccccc1)c1ccccc1 (stereo not given)
high bin

Which category fits this record: `CC(C)(CO)CCCCSCCCCC(C)(C)CO`
mid bin

Which category fits this record: `CC(C)(CO)CCCCOC(=O)CCCCC(C)(C)CO`
high bin

Which category fits this record: `CC(C)(CO)CCCC[S+]([O-])CCCCC(C)(C)CO`
mid bin

Which category fits this record: `CC(C)(CO)CCCCCCCCCC(C)(C)CO`
low bin

Which category fits this record: `CC(C)(CO)CCCCC(CO)CCCCC(C)(C)CO`
mid bin

---

Procedure details: Tmax in male Wistar rat at 100 mg/kg, po
Type: ADME, organism-based
Set-up: dose 100 mg/kg, route oral
Test context: in vivo
Assay endpoint: Tmax (h)
State just the number; it will be interpreted in h.

For the compound shown here, `CC(C)(CCCCC(O)CCCCC(C)(C)C(=O)O)C(=O)O` , give the reported Tmax.
6

---

System: Rattus norvegicus
Procedure details: Activity against high density lipoprotein cholesterol level in obese female Zucker rat serum after 1 week at 30 mg/kg (percent change from pre-treatment)
Assay type: functional
Exercise: state measured Activity for each of the molecules provided.
State the value, then name its unit.

Item: `CC(C)(CO)CCCCNC(=O)CCCCC(C)(C)CO` Test system: Rattus norvegicus Read-out: Activity Value: ?
2%

Item: `CC(=O)C(CCCCC(C)(C)CO)CCCCC(C)(C)CO` Test system: Rattus norvegicus Read-out: Activity Value: ?
-14%

Item: `CC(C)(CO)CCCCN(O)CCCCC(C)(C)CO` Test system: Rattus norvegicus Read-out: Activity Value: ?
27%

Item: `CC(C)(CO)CCCSCCCC(C)(C)CO` Test system: Rattus norvegicus Read-out: Activity Value: ?
54%
